Listing of entries alongside the reported IC90.
system: Trypanosoma cruzi; assay: Antitrypanosomal activity against intracellular Trypanosoma cruzi amastigote infected primary peritoneal mouse macrophages assessed as reduction in amastigote population measured after 96 hrs; assay type: functional, organism-based; settings: time 96 hrs
Output spec: scalar in nM, unitless text.

Given the molecule N#Cc1ccc2nc(NC(=O)c3ccc(C(F)(F)F)nc3)n(CC(F)(F)F)c2c1 , what is its reported IC90?
570

Another: O=C(Cn1ccnc1[N+](=O)[O-])NCc1ccccc1
12600

Another: N#Cc1ccc2nc(NC(=O)c3ccnc(C(F)(F)F)c3)n(CC(F)(F)F)c2c1
310

Another molecule to check: CC[C@@H]([C@H](C)O)n1ncn(-c2ccc(N3CCN(c4ccc(OC[C@@H]5CO[C@@](Cn6cncn6)(c6ccc(F)cc6F)C5)cc4)CC3)cc2)c1=O
2
